biological target: EGFR (epidermal growth factor receptor tyrosine kinase) (Homo sapiens); construct: EGFR cytoplasmic domain (EGFR-CD, amino acids 645–1186), (His)6-tagged; experiment: EGFR-TK autophosphorylation assay, DELFIA/time-resolved fluorometry, recombinant enzyme; assay type: biochemical; conditions: read-out: In Vitro EGFR Activity(nM) *
Sequence (P00533 669-1210): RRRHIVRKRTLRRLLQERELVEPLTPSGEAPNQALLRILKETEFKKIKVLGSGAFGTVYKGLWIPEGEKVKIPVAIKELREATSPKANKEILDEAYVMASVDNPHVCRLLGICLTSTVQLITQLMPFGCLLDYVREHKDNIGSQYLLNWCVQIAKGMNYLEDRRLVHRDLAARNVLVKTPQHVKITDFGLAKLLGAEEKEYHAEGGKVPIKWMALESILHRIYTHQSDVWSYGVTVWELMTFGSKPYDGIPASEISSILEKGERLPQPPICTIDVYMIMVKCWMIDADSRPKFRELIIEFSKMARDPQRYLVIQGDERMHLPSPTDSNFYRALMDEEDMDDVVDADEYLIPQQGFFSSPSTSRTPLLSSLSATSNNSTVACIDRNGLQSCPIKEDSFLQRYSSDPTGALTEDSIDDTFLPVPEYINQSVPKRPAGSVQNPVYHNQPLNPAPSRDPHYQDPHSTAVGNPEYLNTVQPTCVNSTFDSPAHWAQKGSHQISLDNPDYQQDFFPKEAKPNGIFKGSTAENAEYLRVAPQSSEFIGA
ENDPOINT NAME: IC50
Write the quantity with the unit trailing the number.

Given item COC(=O)/C=C/c1ccc(O)cc1OC [compound 1, 7-hydroxy, 5-methoxy, methyl cinnamate] , the value recorded as its IC50 is 98.6 nM
